Each entry below carries its reported protein stability index.
B1: CASP6 (parent)
chain: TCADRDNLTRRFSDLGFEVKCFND

- Variants of: B1
- experiment_notes: protein stability index of a GFP-peptide fusion (GPS, HEK-293T) (PSI 1-6); higher = more stable;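 also: lentivirally expressed fusions sorted by FACS into six bins by GFP to DsRed ratio, PSI derived from sequencing read proportions per bin multiplied by bin number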
- experimental_context: c terminus: a fixed tail appended
Give the figure by itself; no unit, no explanation.

N23Y = 2.34
N23C = 1.8
R11H = 3.5

(Q) I am curious: what protein stability index value has been reported for L15T ?
(A) 4.13

(Q) # query: protein stability index of entry C21Q
(A) 4.05

(Q) Could you share which protein stability index value was measured for C21M ?
(A) 3.2
